- Test Name: Biodistribution in BDL rats with and without excess cold compound
- Type: in vivo
- Test Context: male, Sprague Dawley, rat, blood, iv, total radioactivity, BDL rats, 15 days post-op, 1 hour post-injection, 100-fold excess cold Compound 8; read-out: Activity in Blood, Mean
- Method: On the appropriate day post surgery BDL and sham animals were removed and put under isoflurane anaesthesia, then each animal was injected with 0.3 ml intravenously (i.v.) via tail vein (˜3MBq). At the appropriate time point post-injection of the test item, each animal was re-anaesthetised with isoflurane, sacrificed by cervical dislocation weighed and the weight recorded via a barcode scanning system. […]
Numbered stars: 1 amine (or outer) side, 2 acyl side, 3 side chain; on linkers, the order of the positions; unused ones are H or OH. Bridge positions count the residues as written; N and C are the ends. Side chains are listed from the residue outwards. Peptide text beside a SMILES is read from it. * marks the point of attachment. X1 = C/C(=N\O)C(C)(C)NCCC(CCNC(C)(C)/C(C)=N/O)CCN*; Glutaryl = O=C(CCCC(=O)[*:2])[*:1]; X2 = NC(=O)COCC(=O)NCCOCCOCCOCCN*
Measurement Label: tissue uptake dose at 1 h (%ID)

[[record]]
molecule = "C/C(=N\\O)C(C)(C)NCCC(CCNC(=O)CCCC(=O)NCCCC[C@@H]1NC(=O)CSC[C@@H](C(=O)NCCOCCOCCOCCNC(=O)COCC(N)=O)NC(=O)[C@H](Cc2ccccc2)NC(=O)[C@@H]2CSSC[C@H](NC1=O)C(=O)N[C@@H](CCCNC(=N)N)C(=O)NCC(=O)N[C@@H](CC(=O)O)C(=O)N2)CCNC(C)(C)/C(C)=N/O (stereo partly shown) [Compound 8] ({CH2CO}-K([Glutaryl-X1])CRGDCFC-X2; disulfide 2-6; thioether N-8)"
result_value = 1.61

